Listed here: items and their measured inhibition.
Target: N-formyl peptide receptor 2 (Homo sapiens)
Experiment: human FPRL1 ligands by binding competition, primary screen, cell-based, FPR counter-screen, flow cytometry (AID 441);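 note: 0% = buffer alone and 100% = receptor blocker peptide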
Conditions: FPRL1-expressing cells, fluorescent ligand binding inhibition, hits give high values, concentration not given here
Out of some 24,000 compounds screened, about 70 (0.3%) were called active. The list comes from a sample in which actives are over-represented; it also holds close analogues and randomly drawn compounds.
Answer in %, number only, no unit symbol.

>>> measurement("NC(=O)CCCC1=NS(=O)(=O)c2ccccc2N1")
-3.9
>>> measurement("CCOC(=O)c1[nH]c2c(c1C)C(=O)CC(c1ccc(N(C)C)cc1)C2 (stereo not given)")
-0.6
>>> measurement("O=C(NCc1cccs1)c1ccc2c(c1)ncn2C1CCCC1")
2.8

# value lookup — system N-formyl peptide receptor 2 (Homo sapiens), readout inhibition, item COC(=O)c1cn(C)c2ccc(S(=O)(=O)N3CC(C)CC(C)C3)cc2c1=O (stereo not given) 8.5

Give N-formyl peptide receptor 2 (Homo sapiens) inhibition for `Cn1c(=O)[nH]c(=O)c2c1nc(CN(Cc1ccccc1)Cc1ccccc1)n2CCN1CCOCC1` -0.1

Please tell me: inhibition of CC1(C)CC(O)C(CCC(O)c2ccccc2)C(C)(C)N1 (stereo not given) , system N-formyl peptide receptor 2 (Homo sapiens)? 6.7

Which inhibition is reported with N-formyl peptide receptor 2 (Homo sapiens) for this entry: `Cn1c(C(=O)N2CCC(C(N)=O)CC2)cc2c(=O)n(C)c3ccccc3c21` ? -1.2

Can you look up inhibition on N-formyl peptide receptor 2 (Homo sapiens) for `CCCN(CCC)CCNC(=O)c1cc2c(C)nc3ccccc3c2o1` ? 4.8

----------
Target: N-formyl peptide receptor 2 (Homo sapiens) (UniProt P25090)
Sequence (P25090 whole entry, looked up): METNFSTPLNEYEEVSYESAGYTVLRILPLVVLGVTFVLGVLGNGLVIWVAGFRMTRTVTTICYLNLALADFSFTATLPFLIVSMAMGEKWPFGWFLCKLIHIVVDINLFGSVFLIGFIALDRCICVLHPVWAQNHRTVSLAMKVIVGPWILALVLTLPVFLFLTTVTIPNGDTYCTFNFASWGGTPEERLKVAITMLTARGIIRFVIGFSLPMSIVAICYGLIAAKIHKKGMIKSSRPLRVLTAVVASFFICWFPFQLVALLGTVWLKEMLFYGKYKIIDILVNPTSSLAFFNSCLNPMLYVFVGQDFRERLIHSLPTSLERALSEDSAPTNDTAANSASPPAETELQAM
Assay: human FPRL1 ligands by binding competition, primary screen, cell-based, FPR counter-screen, flow cytometry (AID 441);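 note: 0% = buffer alone and 100% = receptor blocker peptide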
Details: FPRL1-expressing cells, fluorescent ligand binding inhibition, hits give high values, concentration not given here
In all, about 24,000 compounds went through this assay and about 70 (0.3%) were called active. The full list was thinned out, with actives kept by preference.
measured quantity: inhibition (%)
Answer in %, number only, no unit symbol.

Previously resolved entries follow.
>>> measurement("CCCNC(=O)C1CC(=O)N(c2ccc(OCC(=O)Nc3cccc(C)c3C)cc2)C1 (centres undefined)")
-4.6
>>> measurement("CCOc1nc(OCC)nc(-n2cc(-c3ccccc3)nn2)n1")
3
>>> measurement("CCOc1ccc(C2C(C(=O)NC)=C(C)Nc3nc4ccccc4n32)cc1OC (centres undefined)")
-2.9
>>> measurement("Cc1cc(C)c2c(n1)nn1c(N3CCOCC3)cc(C)nc21")
-1.1
>>> measurement("CC(NC(=O)COc1ccccc1)C(=O)NC1=NCCS1 (centres undefined)")
5.2
>>> measurement("Cc1nc2ccc(S(=O)(=O)NCC(=O)O)cc2s1")
6.9

What does the data say about its inhibition? Entry: `COc1ccc(NC(C)=O)cc1NC(=O)CN1CCN(c2ccccn2)CC1` -0.9

GET /values?readout=inhibition&item= `Cc1ccc(NC(=O)CN(C)S(=O)(=O)c2cnc[nH]2)cc1C` -2.5

Could you tell me which inhibition is on file for CC1CCC(NS(=O)(=O)c2ccc3c(c2)n(C)c(=O)c(=O)n3C)CC1 (centres undefined) ? -4.7

Consider the compound shown here: COc1cc(C2C(C(=O)Nc3ccc(F)cc3)=C(C)Nc3nc(CCCO)nn32)cc(OC)c1OC (centres undefined) What is its recorded inhibition? -2.7

----------
Target: N-formyl peptide receptor 2 (Homo sapiens) (UniProt P25090)
Experiment: human FPRL1 ligands by binding competition, primary screen, cell-based, FPR counter-screen, flow cytometry (AID 441);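 note: 0% = buffer alone and 100% = receptor blocker peptide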
Conditions: FPRL1-expressing cells, fluorescent ligand binding inhibition, hits give high values, concentration not given here
In all, about 24,000 compounds went through this assay and about 70 (0.3%) were called active. Shown is part of a subset that was picked to be rich in actives.
measured quantity: inhibition (%)
Quick reminder: number only, in %, skip the unit.

Sample answers from the record:
>>> measurement("Clc1ccc(Cc2nn3c(-c4ccncc4)nnc3s2)cc1")
54.5
>>> measurement("CCOC(=O)C1C(=O)C=C(c2ccc(OC)cc2)CC1c1ccco1 (stereo unspecified)")
-6.4
>>> measurement("CCOc1ccc(C(CC(=O)O)NC(=O)COc2ccccc2)cc1 (stereo unspecified)")
0.6
>>> measurement("CCOC(=O)CNC(=O)CN1C(=O)CCSc2ccccc21")
-6.4
>>> measurement("Cc1cccc(C2c3c(n(C)c(=O)n(C)c3=O)N=C3c4ccccc4C(=O)C32)c1 (stereo unspecified)")
-4.5
>>> measurement("O=C(COC(=O)C12CC3CC(CC(C3)C1)C2)NCc1ccco1")
0.4
>>> measurement("CCOC(=O)c1nnn(-c2nonc2OC)c1-c1ccccc1")
5.9
>>> measurement("CCOC(=O)Nc1ccccc1N1C(=O)c2ccccc2C1=O")
-0.1
>>> measurement("Cc1ncn(C23CC4CC(CC(O)(C4)C2)C3)n1")
8.2
>>> measurement("Fc1ccccc1C(c1nnnn1Cc1ccc2c(c1)OCO2)N1CCN(Cc2ccccc2)CC1 (stereo unspecified)")
10.3

# evaluate next
Requested read-out: inhibition. Entry: `CC(C)Nc1nc(N(c2ccccc2)c2ccccc2)nc(-n2ccnc2)n1` -7.8

----------
Reported inhibition values are given for each entry in this list.
Target: N-formyl peptide receptor 2 (Homo sapiens)
Test: human FPRL1 ligands by binding competition, primary screen, cell-based, FPR counter-screen, flow cytometry (AID 441);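 note: 0% = buffer alone and 100% = receptor blocker peptide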
Details: FPRL1-expressing cells, fluorescent ligand binding inhibition, hits give high values, concentration not given here
About 70 (0.3%) of roughly 24,000 compounds were called active. The entries come from a sample that favours actives as a whole.
Just the number please, in %, no unit attached.

These solved cases illustrate the format of a correct answer.
>>> measurement("c1cc(-c2nn[nH]n2)ccc1CN1CCCCC1")
-4.3
>>> measurement("Cc1ccccc1CSc1nnc(Cn2c(=O)sc3ccccc32)n1C")
5.5
>>> measurement("COCCCN(C(=O)Cn1ncc2c(=O)oc3ccc(C)cc3c21)C(C)c1ccncc1 (stereo not drawn)")
-4.1
>>> measurement("COc1cc2c(cc1OC)C(c1ccc(C)o1)CC(=O)N2 (stereo not drawn)")
-0.6
>>> measurement("COC(=O)[C@H](C(C)C)n1c(C)c(C(C)=O)c(C(C)=O)c1C")
31.1
>>> measurement("CCOc1ccc(-c2nnn(CC(=O)N3CCN(c4ccc(F)cc4)CC3)n2)cc1OCC")
-1.6
>>> measurement("CCOC(=O)c1cccc(NC(=O)CN(c2ccc(C)cc2)S(=O)(=O)c2c(C)noc2C)c1")
-3
>>> measurement("CCOC(=O)c1cnc(-n2nc(C)cc2C)nc1Nc1cccc(C(C)=O)c1")
9
>>> measurement("Clc1ccc(Cn2ncc3c(NCc4cccnc4)ncnc32)cc1")
-5.1
>>> measurement("CC1CN(C(=O)c2ccc3c(c2)OCO3)OC(c2ccccc2)O1 (stereo not drawn)")
5.6

What value of inhibition has been recorded for this entry: Cc1c(NC(=O)C(C)OC(=O)c2cc3c4ccccc4n(C)c3s2)c(=O)n(-c2ccccc2)n1C (stereo not drawn) 0.1

Fill blank: measured inhibition of the molecule `COc1ccccc1N1CCN(c2nc3ccccc3n3nnnc23)CC1` is ____. -3.6

----------
Target: N-formyl peptide receptor 2 (Homo sapiens) (UniProt P25090)
Assay: human FPRL1 ligands by binding competition, primary screen, cell-based, FPR counter-screen, flow cytometry (AID 441);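 note: 0% = buffer alone and 100% = receptor blocker peptide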
Settings: FPRL1-expressing cells, fluorescent ligand binding inhibition, hits give high values, concentration not given here
Among all 24,000 compounds or so, about 70 (0.3%) were called active. The sample holds actives, similar compounds and a random draw of the others, so the mix is not that of the screen.
measured quantity: inhibition (%)
The reply should contain only the number, in %.

Sample records with inhibition:
>>> measurement("COC(=O)C1=C(C)Nc2ncnn2C1c1ccco1 (stereo not given)")
0.6
>>> measurement("CCOC(=O)c1ccn(-c2nc(-c3ccco3)cc(C(F)(F)F)n2)n1")
2.5
>>> measurement("CCN1CCN(c2ncnc3c2oc2nc(C)c4c(c23)CC(C)(C)OC4)CC1")
1.2
>>> measurement("Cc1cccc(N2CCN(C(=O)c3cc4c(=O)[nH]c5ccccc5c4n3C)CC2)c1C")
-5

Entry `Cc1nc2ncnn2c(C)c1CCC(=O)N1CCN(C(=O)c2ccco2)CC1` : reported inhibition = ? -3.3

Which measured inhibition value corresponds to `Cc1c2cnn(-c3ccccc3)c(=O)c2c(C)n1CCCC(=O)N1CCN(C)CC1` ? 0

Dear colleague, I am looking for the recorded inhibition of the following molecule: CC(C)COC(=O)C1C2C=CC3(CN(C(C)c4ccc(Br)cc4)C(=O)C13)O2 (stereo not given) 17.2

Fill in the blank: the reported inhibition of `COCCCNC(=O)c1ccc2c(c1)ncn2-c1ccccc1OC` is ____. 0.4

Fill blank: measured inhibition of the molecule `COc1ccc(-c2nnc(SCC(=O)NC3CCCCC3)o2)cc1OC` is ____. 2.7

Please report the recorded inhibition for COc1ccc(N2C(=O)CCC(C(=O)N(C)C3CCCCC3)C2c2ccc(OC)c(OC)c2)cc1 (stereo not given) . -4.6
